The measurements presented in this section are drawn from patent US20250034245A1.

Some binders, each annotated with its measured Kd.
TARGET_OR_SYSTEM: full-length human Siglec-8 (Siglec-8^FL) (human, UniProt Q9NYZ4 17-499)
Sequence (Q9NYZ4 17-499): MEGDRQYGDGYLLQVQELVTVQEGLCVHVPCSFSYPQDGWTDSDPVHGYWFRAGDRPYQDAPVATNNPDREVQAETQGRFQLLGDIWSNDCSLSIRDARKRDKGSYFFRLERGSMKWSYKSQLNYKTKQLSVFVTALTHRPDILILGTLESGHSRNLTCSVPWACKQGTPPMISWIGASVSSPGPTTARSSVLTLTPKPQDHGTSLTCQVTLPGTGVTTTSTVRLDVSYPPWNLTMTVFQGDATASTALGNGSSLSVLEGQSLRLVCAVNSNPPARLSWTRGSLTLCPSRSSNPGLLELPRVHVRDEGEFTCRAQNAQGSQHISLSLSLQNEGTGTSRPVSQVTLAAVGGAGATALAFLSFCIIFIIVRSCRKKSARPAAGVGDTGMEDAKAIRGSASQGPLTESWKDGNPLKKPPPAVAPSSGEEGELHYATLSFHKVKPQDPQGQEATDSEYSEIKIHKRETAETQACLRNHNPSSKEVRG
ASSAY_TEXT: BLI
Enter your answer as a number in nM; do not include the unit.

Solved entries:
S8-ATX1E1 (antibody, V domains shown) VH: EVQLVESGGGLVQPGRSLRLSCAASGFMFDDYVMHWVRQAPGKGLEWVSGINWNSDNIGYADSVKGRFTISRDNAKNSLFLQMNSLRVEDTALYYCAKDIDAAAFDYWGQGTLVTVSS VL: DIVMTQSPLSLPVTPGEPASISCRSSQSLLHSNGYSYLAWYLQKPGQSPQLLIYLVSNRASGVPDRFTGSGSGTDFTLKISRVEAEDVGVYYCMQALQTPWTFGQGTKVEIK
0.589
S8-ATX1B4 (antibody, V domains shown) VH: QVQLVESGGGVVQPGRSLRLSCAASGFTFSIYGMHWVRQAPGKGLEWVAVISYDGNNKDYTDSVKGRFTISRDNSKNTLYLQMNSLTAEDTAVYYCAKRGYGSSSLEFWGQGTLVTVSS VL: DIQMTQSPSSLSASVGDRVTITCRASQDIRNDLGWYQQKPGKAPKRLIYATSSLQSGVPSRFSGSRSGAEFTLTVSSLQPEDFATYYCLQHNTYPYTFGQGTKLEIK
0.502
S8-ATX1E4 (antibody, V domains shown) VH: QVQLVQSGSELKKPGASVKVSCKTSGYTFTSYAMNWVRQAPGQGLEWMGWINTNTGNPTYAQGFRGRFVFSLDTSVSTAYLQISSLKAEDTAVYYCARDKYSSSWYWFDSWGQGTLVTVSS VL: DIQMTQSPSSLSASVGDRVTITCRPSQNISSYLNWYQQKPGKAPKLLIYAASSLRSGVPSRFSGSGSGTDFTLTVSSLQPEDFANYYCQQSYSTPYTFGRGTKLEIK
0.917

Turning now to a further binder:
Problem: State the recorded Kd for this entry: S8-ATX2F10 (antibody, V domains shown) VH: EVQLVESGGDLVKSGGSLRLSCAASGFTFSDAWMSWVRQAPGKGLEWVGRIQSKTDGGTTDYVAPVKGRFTISRDDSKDTLYLHMNSLTTEDTAVYYCTTDLYYYGSGSYFLGQGTLVTVSS VL: DIQMTQSPSSLSASVGDRVTITCRASQNIITYLNWYQQKPGKAPKLLIYAASSLQSGVPSRFSGSGSGTDFTLTISSLQPEDFAIYHCQQSYNVPTTFGQGTKLEIK
Result: 100
